Test system: Staphylococcus aureus
assay: Antimicrobial activity against macrolide-sensitive Staphylococcus aureus ATCC 13709
Type: functional
Answer each item with its documented MIC.
All answers are understood in µg/mL, so give the number only.

Request: // map CC[C@H]1OC(=O)[C@H](C)[C@@H](O[C@H]2C[C@@](C)(OC)[C@@H](OC(=O)CCNCCNc3cncc([N+](=O)[O-])c3)[C@H](C)O2)[C@H](C)[C@@H](O[C@@H]2O[C@H](C)C[C@H](N(C)C)[C@H]2O)[C@](C)(OC)C[C@@H](C)NC(=O)[C@H](C)[C@@H](O)[C@]1(C)O to recorded MIC (system: Staphylococcus aureus)
Response: 0.25

Request: Entry CC[C@H]1OC(=O)[C@H](C)[C@@H](O[C@H]2C[C@@](C)(OC)[C@@H](O)[C@H](C)O2)[C@H](C)[C@@H](O[C@@H]2O[C@H](C)C[C@H](N(C)C)[C@H]2O)[C@](C)(O)C[C@@H](C)CN(C)[C@H](C)[C@@H](O)[C@]1(C)O , system Staphylococcus aureus: what MIC was measured?
Response: 0.5
